Measured recombinant UMI read abundance (log10) by item
Experiment: recombinant UMI read abundance after kanamycin selection (control-corrected) (log10(CPM+1)); higher = more efficient recombination; extreme values may be limits of the assay; sequences stand for … in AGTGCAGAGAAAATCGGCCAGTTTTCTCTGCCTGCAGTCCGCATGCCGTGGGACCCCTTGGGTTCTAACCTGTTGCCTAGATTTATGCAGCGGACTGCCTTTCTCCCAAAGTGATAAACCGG…AGGTTGGTTTCACT; site = the 11-nt donor;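 further: IS621 bridge recombinase in Escherichia coli cells against a fixed T5 target plasmid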
quantity-kind: recombinant UMI read abundance (log10)

>  <monomer-sequence>
TATAATACATGGACCGGTTTTCCCGGTAATCCGTATTTGCA (site TAGAATACTTG)

>  <quantity-kind>
recombinant UMI read abundance (log10)

>  <assay-result>
2.6

$$$$
>  <monomer-sequence>
GGTCCGACATGGACCGGTTTTCCCGGTAATCCGTATTTGTA (site GGTCCCACTTA)

>  <quantity-kind>
recombinant UMI read abundance (log10)

>  <assay-result>
0.00256

$$$$
>  <monomer-sequence>
ATCCTTCCATGGACCGGTTTTCCCGGTAATCCGTATTTGCC (site ATCCTTCCTGG)

>  <quantity-kind>
recombinant UMI read abundance (log10)

>  <assay-result>
0

$$$$
>  <monomer-sequence>
GGTACATCATGGACCGGTTTTCCCGGTAATCCGTATTTGTT (site GGTACGTCTAA)

>  <quantity-kind>
recombinant UMI read abundance (log10)

>  <assay-result>
0.0133

$$$$
>  <monomer-sequence>
GCTTGCCCATGGACCGGTTTTCCCGGTAATCCGTATTTGAG (site GCTTGCCCTCT)

>  <quantity-kind>
recombinant UMI read abundance (log10)

>  <assay-result>
0.0701

$$$$
>  <monomer-sequence>
TCCATCGCATGGACCGGTTTTCCCGGTAATCCGTATTTGCG (site TCCAACGCTCG)

>  <quantity-kind>
recombinant UMI read abundance (log10)

>  <assay-result>
0

$$$$
>  <monomer-sequence>
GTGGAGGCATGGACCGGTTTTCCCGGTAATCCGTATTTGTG (site GTGGAGGCTTA)

>  <quantity-kind>
recombinant UMI read abundance (log10)

>  <assay-result>
1.42

$$$$
>  <monomer-sequence>
TTACCTGCATGGACCGGTTTTCCCGGTAATCCGTATTTGTG (site TTACCTGCTCA)

>  <quantity-kind>
recombinant UMI read abundance (log10)

>  <assay-result>
0.0157

$$$$
>  <monomer-sequence>
CTGTAGCCATGGACCGGTTTTCCCGGTAATCCGTATTTGAT (site CTGTAGCCTAT)

>  <quantity-kind>
recombinant UMI read abundance (log10)

>  <assay-result>
0.748

$$$$
>  <monomer-sequence>
CCCGACTCATGGACCGGTTTTCCCGGTAATCCGTATTTGAA (site CCCGACTCTTT)

>  <quantity-kind>
recombinant UMI read abundance (log10)

>  <assay-result>
1.35

$$$$
>  <monomer-sequence>
GTGGATGCATGGACCGGTTTTCCCGGTAATCCGTATTTGTG (site GTGGACGCTCA)

>  <quantity-kind>
recombinant UMI read abundance (log10)

>  <assay-result>
0.837

$$$$
>  <monomer-sequence>
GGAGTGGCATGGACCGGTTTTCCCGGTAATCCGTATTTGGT (site GGAGTGGCTAG)

>  <quantity-kind>
recombinant UMI read abundance (log10)

>  <assay-result>
1.26

$$$$
>  <monomer-sequence>
CACGTCCCATGGACCGGTTTTCCCGGTAATCCGTATTTGTT (site CACGCCCCTAA)

>  <quantity-kind>
recombinant UMI read abundance (log10)

>  <assay-result>
0.263

$$$$
>  <monomer-sequence>
GGCTAGGCATGGACCGGTTTTCCCGGTAATCCGTATTTGGT (site AGCTAGGCTAC)

>  <quantity-kind>
recombinant UMI read abundance (log10)

>  <assay-result>
0.208

$$$$
